Tested on: HEK-293T
Experiment: Cytotoxicity against HEK293T cells assessed as reduction in cell viability incubated for 48 hrs by CCK8 assay
Settings: Homo sapiens
pIC50: −log10 of the molar value.
assay-endpoint: pIC50

{"structure-as-smiles": "CC(C)c1ccc(Oc2ccc(O)c(O)c2)c(-c2ccsc2S(=O)(=O)NCCNC(=O)Nc2cc(Cl)cc(Cl)c2)c1", "readout-value": "< 5.00"}

Check the records and state pIC50 for COc1cccc(NC(=S)NCCNS(=O)(=O)c2ccc(-c3ccccc3Oc3ccc([N+](=O)[O-])cc3)s2)c1
< 4.70

Check the records and state pIC50 for COc1ccc(Oc2ccc([N+](=O)[O-])cc2-c2ccsc2S(=O)(=O)N2CCN(C(=O)Nc3ccc([N+](=O)[O-])cc3)CC2)cc1OC
< 4.70

Check the records and state pIC50 for Cc1ccc(-c2ccsc2S(=O)(=O)NCCNC(=S)Nc2cc(C(F)(F)F)cc(C(F)(F)F)c2)c(Oc2ccc(O)c(O)c2)c1
5.10
